- Test system: Poly(dA-dU)oligonucleotide
- Procedure Summary: Binding affinity to polyA-polyU dsRNA (unknown origin) assessed as binding constant by UV-vis spectrophotometric method
- Format: nucleic-acid assay
// reported log Ks for each item listed
// keep it numeric: no unit symbol after the value

Check out these entries, answers already filled in.
{"Entry Smiles": "Fc1ccc2[nH]c(-c3ccc(Cn4cc(COCc5cn(Cc6ccc(-c7nc8cc(F)ccc8[nH]7)o6)nn5)nn4)o3)nc2c1", "Study Target": "Poly(dA-dU)oligonucleotide", "log Ks": 6.43}
{"Entry Smiles": "Cl.Cl.N=C(N)c1ccc2[nH]c(-c3ccc(Cn4cc(CCCc5cn(Cc6ccc(-c7nc8cc(C(=N)N)ccc8[nH]7)o6)nn5)nn4)o3)nc2c1", "Study Target": "Poly(dA-dU)oligonucleotide", "log Ks": 5.7}
{"Entry Smiles": "Clc1ccc2[nH]c(-c3ccc(Cn4cc(COCc5cn(Cc6ccc(-c7nc8cc(Cl)ccc8[nH]7)o6)nn5)nn4)o3)nc2c1", "Study Target": "Poly(dA-dU)oligonucleotide", "log Ks": 5.12}
{"Entry Smiles": "c1ccc2[nH]c(-c3ccc(Cn4cc(COc5ccc(OCc6cn(Cc7ccc(-c8nc9ccccc9[nH]8)o7)nn6)cc5)nn4)o3)nc2c1", "Study Target": "Poly(dA-dU)oligonucleotide", "log Ks": 5.5}
{"Entry Smiles": "Cl.Cl.c1cc2[nH]c(-c3ccc(Cn4cc(CCCc5cn(Cc6ccc(-c7nc8cc(C9=NCCN9)ccc8[nH]7)o6)nn5)nn4)o3)nc2cc1C1=NCCN1", "Study Target": "Poly(dA-dU)oligonucleotide", "log Ks": 6.83}

The compound listed as `c1ccc2[nH]c(-c3ccc(Cn4cc(CCCc5cn(Cc6ccc(-c7nc8ccccc8[nH]7)o6)nn5)nn4)o3)nc2c1` shows log Ks equal to 6.54

The compound listed as `c1ccc2[nH]c(-c3ccc(Cn4cc(COCc5cn(Cc6ccc(-c7nc8ccccc8[nH]7)o6)nn5)nn4)o3)nc2c1` shows log Ks equal to 5.76

The compound listed as `CC(C)NC(=N)c1ccc2[nH]c(-c3ccc(Cn4cc(CCCc5cn(Cc6ccc(-c7nc8cc(C(=N)NC(C)C)ccc8[nH]7)o6)nn5)nn4)o3)nc2c1.Cl.Cl` shows log Ks equal to 5.69

The compound listed as `Cl.Cl.N=C(N)c1ccc2[nH]c(-c3ccc(Cn4cc(COCc5cn(Cc6ccc(-c7nc8cc(C(=N)N)ccc8[nH]7)o6)nn5)nn4)o3)nc2c1` shows log Ks equal to 6.65

The values you see were collected from ChEMBL document CHEMBL4346704.
